Source listed as patent US20050187155A1.

Target: T1, MMP-7
T1 sequence (P09237 95-267, species assumed, looked up): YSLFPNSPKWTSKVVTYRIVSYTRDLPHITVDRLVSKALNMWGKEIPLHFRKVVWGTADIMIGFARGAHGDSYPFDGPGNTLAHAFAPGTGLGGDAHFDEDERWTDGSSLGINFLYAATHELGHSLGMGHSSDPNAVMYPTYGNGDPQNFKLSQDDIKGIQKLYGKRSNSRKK
Experiment: cell-based or functional assay
In this section we review reported IC50 for the inhibition of MMPs using a fluorescein conjugated gelatin values for a set of binders.
readout_label: IC50 for the inhibition of MMPs using a fluorescein conjugated gelatin

binder: FVAPFPEVFG [FVAPFPEVFG (SEQ ID NO:23)]
val: 300 µM
//
binder: ENLLRFFVAPFPEVFG [ENLLRFFVAPFPEVFG (SEQ ID NO:22)]
val: 1000 µM
//
binder: ENLHLPLPLL [ENLHLPLPLL (SEQ ID NO:19)]
val: 275 µM
//
binder: NLHLPLPLL [NLHLPLPLL (SEQ ID NO:12)]
val: 1200 µM
